B1: HDV Ribozyme (parent)
chain: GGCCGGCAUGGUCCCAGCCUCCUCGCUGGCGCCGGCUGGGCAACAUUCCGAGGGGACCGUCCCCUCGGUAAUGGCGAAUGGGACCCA

# Variants of: B1
# assayComment: self-cleavage, relative activity (ratio to wild type); higher = more cleavage; co-transcriptional
measuredProperty: self-cleavage

| change | self-cleavage |
| --- | --- |
| C14A G74A | 0.182 |
| C3G U27G | 0.479 |
| C48A A51U | 1.1 |
| G11C C30G | 0 |
| C21U A87U | 0.368 |
| G11C A45G | 0.249 |
| U23G C48G | 0.361 |
| C48G G52A | 0.86 |

Item under review: G11A C14A . Reported self-cleavage?
0.148

Item under review: U12C U72C . Reported self-cleavage?
0.196

Item under review: G5A C15G . Reported self-cleavage?
0.151
